tested on: Fibroblast; assay: Incucyte cell viability with human fibroblast; assay type: toxicity, cell-based; details: 24 h, 10 µM, compound concentration 10 uM, replicate number 1, timepoint 24 hours; further: filed as whole numbers so only -1 and 0 and 1 occur
Growth Rate values by entry

compoundStructure: CNc1nc(-c2ccc3c(N)n[nH]c3c2)cc(N2C[C@@H](C(=O)NC3CCCCC3)CC[C@H]2C)n1
Growth Rate: 0

compoundStructure: Cc1cccc(NC(=O)N[C@@H]2N=C(c3ccccc3)c3ccccc3N(C)C2=O)c1
Growth Rate: 1

compoundStructure: CCCCc1nc2ccc(NC(=O)NC3CCCCC3)cc2n1Cc1ccc(-c2ccccc2C(=O)O)cc1
Growth Rate: 1

compoundStructure: FC(F)c1nc2ccccc2n1-c1nc(N2CCOCC2)nc(N2CCOCC2)n1
Growth Rate: 0

* * *

Population Membrane Permeable-Phenotype (%) values by entry
test system: Fibroblast; test: Multiplex assay against human fibroblast; type: toxicity, cell-based; details: 24 h, 1 µM, compound concentration 1 uM, replicate 2
measurementKind: Population Membrane Permeable-Phenotype (%)

compound: CC(C)N1CCC(C)(C)c2cc(C#Cc3ccc(C(=O)O)cc3)ccc21
dataValue: 3%

compound: COc1ccc(NS(=O)(=O)c2sc3ccc(Cl)cc3c2C)cc1N1CCNCC1.Cl
dataValue: 5%

compound: CNC(=O)c1nn(C)c2c1C(C)(C)Cc1cnc(Nc3ccc(N4CCN(C)CC4)cc3)nc1-2 [MILCICLIB]
dataValue: 10%

compound: CNC(=O)c1cc(Oc2ccc(NC(=O)Nc3cc(C(C)(C)C)nn3-c3ccc4ncccc4c3)c(F)c2)ccn1 [REBASTINIB]
dataValue: 5%

* * *

tested on: Fibroblast; test: Multiplex assay against human fibroblast; assay type: toxicity, cell-based; conditions: 48 h, 1 µM, compound concentration 1 uM, replicate 2
Population Healthy Nuclei (%) values by entry
measurementKind: Population Healthy Nuclei (%)

compound: Cc1nc(Cc2cccc(C(F)(F)F)c2)sc1-c1ccc(C(N)=O)nc1 [TP-024n]
measurementKind: Population Healthy Nuclei (%)
dataValue: 80%
--
compound: Nc1ccc(C(=O)Nc2cccc(-c3nc(N4CCOCC4)c4oc5ncccc5c4n3)c2)cn1
measurementKind: Population Healthy Nuclei (%)
dataValue: 41%
--
compound: Nc1nc2c(c(N3CCNCC3)n1)CCC1=C2[C@@H]2CCCC[C@@H]2O1
measurementKind: Population Healthy Nuclei (%)
dataValue: 56%
--
compound: O=C(O)c1ccc2cc(-c3ccc(O)c(C45CC6CC(CC(C6)C4)C5)c3)ccc2c1 [O-DEMETHYLATED ADAPALENE]
measurementKind: Population Healthy Nuclei (%)
dataValue: 71%

* * *

tested on: HEK-293T; test: Incucyte cell viability with HEK293T; format: toxicity, cell-based; conditions: human, 0 h, 10 µM, compound concentration 10 uM, replicate number 2, timepoint 0 hours; further: filed as whole numbers so only -1 and 0 and 1 occur
Growth Rate values by entry

compound: CC(=O)c1cc(-c2cc(C(=O)NC3CC3)ccc2C)c2ncccn12
Growth Rate: 1
--
compound: Cc1cc(C(=O)N2Cc3cnn(C)c3Nc3ccccc32)ccc1CNC(=O)N1CCC[C@H]1C(=S)N1CCCN(C)CC1
Growth Rate: 0
--
compound: COc1ccc(NS(=O)(=O)c2sc3ccc(Cl)cc3c2C)cc1N1CCNCC1.Cl
Growth Rate: 1
--
compound: O=C(NOC[C@H](O)CO)c1ccc(F)c(F)c1Nc1ccc(I)cc1F [MIRDAMETINIB]
Growth Rate: 1
--
compound: Cc1c(Oc2ccc(F)cc2)c(OC(C)C)nn1-c1ccc(C2CC2)cn1 [IPP/CNRS-A019]
Growth Rate: 1
--
compound: COc1cccc(CNC(=O)c2nc3scc(CN(C)Cc4ccccc4)c3c(=O)[nH]2)c1 [T-26f]
Growth Rate: 1
--
compound: N#Cc1ccc(Nc2ccc3[nH]c(=O)[nH]c3c2)c(Cl)c1 [TP-021n]
Growth Rate: 1
--
compound: CCNC(=O)c1cc2c(N3CCOC[C@@H]3C)ccnc2[nH]1
Growth Rate: 0
--
compound: COc1ccccc1C(=O)Nc1cc2c(cc1N1CCCC1)n(C)c(=O)n2C
Growth Rate: 1
--
compound: COc1ccc(/C=C/CCCCOc2ccc(C(=O)c3cccc(C(=O)O)c3)cc2CCC(=O)O)cc1
Growth Rate: 0
--
compound: Oc1ccc(-c2nc3cc(O)cc(Br)c3o2)cc1
Growth Rate: 0
--
compound: CC(=O)[C@@]1(O)CC[C@H]2[C@@H]3C[C@H](C)C4=CC(=O)CC[C@]4(C)[C@H]3CC[C@@]21C
Growth Rate: 0
--
compound: O=C(NC[C@H](O)CN1CCc2ccccc2C1)c1ccnc(NC2CCC2)c1
Growth Rate: 0

* * *

test system: Fibroblast; assay: Multiplex assay against human fibroblast; assay type: toxicity, cell-based; conditions: 48 h, 10 µM, compound concentration 10 uM, replicate 1

compound: CCCn1c(=O)c2[nH]c(C34CC5CC(CC3C5)C4)nc2n(CCC)c1=O [ROLOFYLLINE]
Population Apoptotic (%): 62
//
compound: Cc1cc2c(cc1N1C(=O)c3cccc4c(CCCO)ccc(c34)C1=O)n(C)c(=O)n2C
Population Apoptotic (%): 90
//
compound: CNc1oc(-c2cccc3ccccc23)nc1C#N
Population Apoptotic (%): 85
//
compound: Nc1nc2c(c(N3CCNCC3)n1)CCC1=C2[C@@H]2CCCC[C@@H]2O1
Population Apoptotic (%): 41
//
compound: COc1cc(N2CCC(N(C)C)CC2)ccc1Nc1ncc(Cl)c(Nc2ccccc2P(C)(C)=O)n1
Population Apoptotic (%): 87
//
compound: Cl.Cl.Nc1ncnc2c1c(-c1cccc(OCc3ccccc3)c1)cn2[C@H]1C[C@@H](CN2CCC2)C1
Population Apoptotic (%): 94
//
compound: CCc1cc2c(cc1CC)CC(NC[C@H](O)c1ccc(O)c3[nH]c(=O)ccc13)C2 [INDACATEROL]
Population Apoptotic (%): 70
//
compound: O=C(O)c1ccc2cc(-c3ccc(O)c(C45CC6CC(CC(C6)C4)C5)c3)ccc2c1 [O-DEMETHYLATED ADAPALENE]
Population Apoptotic (%): 85
//
compound: CC(C)Oc1ccc(C(=O)N[C@H](CNC(=O)CN(C)C)Cc2ccc(-c3cn4cccc([C@H](C)O)c4n3)cc2)cc1Cl [GSK-923295A]
Population Apoptotic (%): 71
//
compound: CCn1c(-c2nonc2N)nc2cnc(Oc3cccc(NC(=O)c4ccc(OCCN5CCOCC5)cc4)c3)cc21 [GSK-269962A]
Population Apoptotic (%): 50

* * *

Population Healthy Nuclei (%) values by entry
system: Fibroblast; assay: Multiplex assay against human fibroblast; type: toxicity, cell-based; settings: 12 h, 10 µM, compound concentration 10 uM, replicate 1

compound: Cl.Cl.NC1(c2ccc(-c3nc4ccn5c(=O)[nH]nc5c4cc3-c3ccccc3)cc2)CCC1
Population Healthy Nuclei (%): 38
//
compound: COc1cc2c(NC3CCN(C(C)C)CC3)nc(N3CCC(F)(F)CC3)nc2cc1OCCCN1CCCC1
Population Healthy Nuclei (%): 47
//
compound: CCn1c(-c2nonc2N)nc2cnc(Oc3cccc(NC(=O)c4ccc(OCCN5CCOCC5)cc4)c3)cc21 [GSK-269962A]
Population Healthy Nuclei (%): 28
//
compound: COc1ccc(NS(=O)(=O)c2sc3ccc(Cl)cc3c2C)cc1N1CCNCC1.Cl
Population Healthy Nuclei (%): 47
//
compound: Cc1cc2c(cc1N1C(=O)c3cccc4c(CCCO)ccc(c34)C1=O)n(C)c(=O)n2C
Population Healthy Nuclei (%): 46
//
compound: CN(C)CCOc1ccc(-c2nc(-c3ccncc3)c(-c3ccc4c(c3)CC/C4=N\O)[nH]2)cc1
Population Healthy Nuclei (%): 48

* * *

Population Mitochondria Different-Phenotype (%) values by entry
test system: Fibroblast; assay: Multiplex assay against human fibroblast; assay type: toxicity, cell-based; conditions: 12 h, 1 µM, compound concentration 1 uM, replicate 2
measurementKind: Population Mitochondria Different-Phenotype (%)

compound: COc1cc2c(Nc3ccc(NC(=O)c4ccccc4)cc3)ncnc2cc1OCCCN1CCOCC1
dataValue: 12
//
compound: CCC(=O)O[C@]1(C(=O)SCF)[C@H](C)C[C@H]2[C@@H]3C[C@H](F)C4=CC(=O)C=C[C@]4(C)[C@@]3(F)[C@@H](O)C[C@@]21C [FLUTICASONE PROPIONATE]
dataValue: 9
//
compound: CCCn1c(=O)c2[nH]c(C34CC5CC(CC3C5)C4)nc2n(CCC)c1=O
dataValue: 15
//
compound: c1ccc2oc(-c3csc(C4CCN(Cc5nc6ncccc6[nH]5)CC4)n3)cc2c1
dataValue: 5
//
compound: Nc1nc2c(c(N3CCNCC3)n1)CCC1=C2[C@@H]2CCCC[C@@H]2O1
dataValue: 27
//
compound: CCc1cc2c(cc1CC)CC(NC[C@H](O)c1ccc(O)c3[nH]c(=O)ccc13)C2
dataValue: 11
//
compound: COc1ccc(NS(=O)(=O)c2sc3ccc(Cl)cc3c2C)cc1N1CCNCC1.Cl
dataValue: 26
//
compound: Cc1nc(Cc2cccc(C(F)(F)F)c2)sc1-c1ccc(C(N)=O)nc1 [TP-024n]
dataValue: 18
//
compound: CCOc1cc(N2CCC(O)CC2)ccc1Nc1ncc2c(n1)N(C1CCCC1)CCC(=O)N2C
dataValue: 17
